Just for reference, the supplement of paper PMC7366291 is where these values come from.

# Test system: Danio rerio Tg(wt1b:EGFP) embryo, pronephros
# assay text: fraction of imaged embryos annotated as normal kidney; higher = less nephrotoxic; extreme values may be limits of the assay
# experimental setup: 25 µM; exposure: 24-48 hpf
Where a name gives a salt, the structure may show the parent alone.
readout name: fraction of imaged embryos annotated as normal kidney
Returns: the value as a bare number; no unit string appended.

Input: Please report the measured fraction of imaged embryos annotated as normal kidney for CN1[C@@H]2CC[C@H]1C[C@@H](OC(=O)[C@H](CO)c1ccccc1)C2
Output: 0.75

Input: Please report the measured fraction of imaged embryos annotated as normal kidney for CN[C@@H]1C[C@@H](c2ccc(Cl)c(Cl)c2)c2ccccc21 [Indatraline hydrochloride]
Output: 0.833

Input: Please report the measured fraction of imaged embryos annotated as normal kidney for CCC1=C[C@H]2CN3CCc4c([nH]c5ccccc45)[C@](C(=O)OC)(C2)[C@H]13
Output: 0.833

# evaluate next
Input: Please report the measured fraction of imaged embryos annotated as normal kidney for C[C@]12CC[C@H](O)C[C@H]1CC[C@@H]1[C@@H]2CC[C@]2(C)[C@@H](C3=CC(=O)OC3)CC[C@]12O
Output: 0.667

* * *

# Test system: Danio rerio Tg(wt1b:EGFP) embryo, pronephros
# assay text: glomerular width (mean of left and right), fold change vs DMSO control; higher = wider glomerulus
# experimental setup: 25 µM; exposure: 24-48 hpf
Structures can show the parent of a compound that is named as a salt.
Classification field: true = glomerular width at or over 1; false = glomerular width under 1.

Input: Please check the record COc1ccc(Cc2nccc3cc(OC)c(OC)cc23)cc1OC [Papaverine hydrochloride] and state if its glomerular width is at or above 1.
Output: true

Input: Please check the record C(#CCN1CCCC1)CN1CCCC1 [Tremorine dihydrochloride] and state if its glomerular width is at or above 1.
Output: false

Others:
Input: Please check the record CN1[C@@H]2CC[C@H]1C[C@@H](OC(=O)[C@H](CO)c1ccccc1)C2 and state if its glomerular width is at or above 1.
Output: true

Input: Please check the record CN(C)C(=O)Oc1cc(OC(=O)N(C)C)cc(C(O)CNC(C)(C)C)c1 (stereo not drawn) [Bambuterol hydrochloride] and state if its glomerular width is at or above 1.
Output: false

Input: Please check the record CCN[C@@H](C)Cc1cccc(C(F)(F)F)c1 [Dexfenfluramine hydrochloride] and state if its glomerular width is at or above 1.
Output: true

Input: Please check the record C[C@]12CC[C@H]3[C@@H](CCC4=CC(=O)CC[C@@H]43)[C@@H]1CC[C@@H]2O and state if its glomerular width is at or above 1.
Output: false

Input: Please check the record CC[C@@H](C(N)=O)N1CCCC1=O and state if its glomerular width is at or above 1.
Output: true

Input: Please check the record O=C(CCCN1CCC(n2c(=O)[nH]c3ccccc32)CC1)c1ccc(F)cc1 and state if its glomerular width is at or above 1.
Output: false

Input: Please check the record O=P1(N(CCCl)CCCl)NCCCO1 (stereo not drawn) [Cyclophosphamide] and state if its glomerular width is at or above 1.
Output: false

Input: Please check the record COc1ccc2c(c1)[C@]13CCCC[C@@H]1[C@H](C2)N(C)CC3 [Dextromethorphan hydrobromide monohydrate] and state if its glomerular width is at or above 1.
Output: false

Input: Please check the record CCC(=O)O[C@H]1CC[C@H]2[C@@H]3CCC4=CC(=O)CC[C@]4(C)[C@H]3CC[C@]12C [Testosterone propionate] and state if its glomerular width is at or above 1.
Output: true

* * *

# Test system: Danio rerio Tg(wt1b:EGFP) embryo, pronephros
# assay text: glomerular separation, fold change vs DMSO control; higher = glomeruli further apart (abnormal)
# experimental setup: 25 µM; exposure: 24-48 hpf
Where a name gives a salt, the structure may show the parent alone.
Listed here are compounds together with their documented glomerular separation.
Returns: the value as a bare number; no unit string appended.

Please review the entries below; each comes with its answer.
Input: Please report the measured glomerular separation for C[C@]12CC[C@H](O)C[C@H]1CC[C@@H]1[C@@H]2CC[C@]2(C)[C@@H](C3=CC(=O)OC3)CC[C@]12O
Output: 1.38

Input: Please report the measured glomerular separation for C[N+]1(C)CCCC(OC(=O)C(O)(c2ccccc2)c2ccccc2)C1 (stereo not drawn) [Mepenzolate bromide]
Output: 1.4

Input: Please report the measured glomerular separation for CC(=O)OCC(=O)[C@H]1CC[C@H]2[C@@H]3CC[C@H]4C[C@H](O)CC[C@]4(C)[C@H]3C(=O)C[C@]12C [Alfadolone acetate]
Output: 1.22

Input: Please report the measured glomerular separation for Cc1cccc(C)c1NC1=NCCCS1
Output: 0.757

Input: Please report the measured glomerular separation for CC(=O)OCC1=C(C(=O)O)N2C(=O)[C@@H](N)[C@H]2SC1
Output: 0.819

Others:
Input: Please report the measured glomerular separation for CC(CCc1ccccc1)NC(C)C(O)c1ccc(O)cc1 (stereo not drawn)
Output: 0.871

Input: Please report the measured glomerular separation for CN[C@@H]1C[C@@H](c2ccc(Cl)c(Cl)c2)c2ccccc21 [Indatraline hydrochloride]
Output: 0.788

Input: Please report the measured glomerular separation for C[C@]12N[C@H](Cc3ccccc31)c1ccccc12 [Dizocilpine maleate]
Output: 0.888

* * *

# System: Danio rerio Tg(wt1b:EGFP) embryo, pronephros
# assay text: pronephric angle neck segment to proximal convoluted tubule (mean of left and right), fold change vs DMSO control; higher = larger pronephric angle
# experimental setup: 25 µM; exposure: 24-48 hpf
Counter-ions that a name gives are not always drawn.
Listed here are molecules together with their documented pronephric angle neck segment.
Returns: the value as a bare number; no unit string appended.

Please review the entries below; each comes with its answer.
Input: Please report the measured pronephric angle neck segment for CNC(C)(C)Cc1ccccc1 [Mephentermine hemisulfate]
Output: 0.991

Input: Please report the measured pronephric angle neck segment for C[N+]1(C)CCCC(OC(=O)C(O)(c2ccccc2)c2ccccc2)C1 (configuration not stated) [Mepenzolate bromide]
Output: 1

Input: Please report the measured pronephric angle neck segment for CC(Cc1ccccc1)NCCC(c1ccccc1)c1ccccc1 (configuration not stated) [Prenylamine lactate]
Output: 0.953

Input: Please report the measured pronephric angle neck segment for C1CCc2nnnn2CC1
Output: 0.956

Input: Please report the measured pronephric angle neck segment for C[C@]12COC(=O)C[C@@H]1CC[C@@H]1[C@@H]2CC[C@@]2(C)[C@H]1CC[C@]2(C)O
Output: 1.01

Input: Please report the measured pronephric angle neck segment for CCC1(CC)C(=O)C=CNC1=O
Output: 0.993

Input: Please report the measured pronephric angle neck segment for CC[C@@H](CO)NC(=O)[C@@H]1C=C2c3cccc4[nH]cc(c34)C[C@H]2N(C)C1 [Methylergometrine maleate]
Output: 1.05

Input: Please report the measured pronephric angle neck segment for CC[C@@H](C(N)=O)N1CCCC1=O
Output: 1.01

Input: Please report the measured pronephric angle neck segment for CCC(COC(=O)c1cc(OC)c(OC)c(OC)c1)(c1ccccc1)N(C)C (configuration not stated)
Output: 1.01

Input: Please report the measured pronephric angle neck segment for CC(N)C(O)c1ccccc1 (configuration not stated) [Phenylpropanolamine hydrochloride]
Output: 1.07

Others:
Input: Please report the measured pronephric angle neck segment for NCCCNCCSP(=O)(O)O
Output: 1.02

Input: Please report the measured pronephric angle neck segment for Clc1ccc(C(OCCN2CCCCC2)c2ccccc2)cc1 (configuration not stated) [Cloperastine hydrochloride]
Output: 0.994

Input: Please report the measured pronephric angle neck segment for CCC1=C[C@H]2CN3CCc4c([nH]c5ccccc45)[C@](C(=O)OC)(C2)[C@H]13
Output: 1

Input: Please report the measured pronephric angle neck segment for CN1[C@@H]2CC[C@H]1C[C@@H](OC(=O)[C@H](CO)c1ccccc1)C2
Output: 0.999

Input: Please report the measured pronephric angle neck segment for CC(O)(CS(=O)(=O)c1ccc(F)cc1)C(=O)Nc1ccc(C#N)c(C(F)(F)F)c1 (configuration not stated) [Bicalutamide]
Output: 0.971

Input: Please report the measured pronephric angle neck segment for O=C1CC[C@@]2(O)[C@H]3Cc4ccc(O)c5c4[C@@]2(CCN3CC2CC2)[C@H]1O5 [Naltrexone hydrochloride dihydrate]
Output: 1.03

Input: Please report the measured pronephric angle neck segment for O=[N+]([O-])O[C@H]1CO[C@H]2[C@@H]1OC[C@H]2O[N+](=O)[O-] [Isosorbide dinitrate]
Output: 1.02

Input: Please report the measured pronephric angle neck segment for C[C@]12CC[C@H](O)C[C@H]1CC[C@@H]1[C@@H]2C[C@@H](O)[C@]2(C)[C@@H](C3=CC(=O)OC3)CC[C@]12O
Output: 0.964

Input: Please report the measured pronephric angle neck segment for c1ccc2nc(N3CCNCC3)ccc2c1 [Quipazine dimaleate salt]
Output: 1.02

Input: Please report the measured pronephric angle neck segment for C=C1CC[C@@]2(O)[C@H]3Cc4ccc(O)c5c4[C@@]2(CCN3CC2CC2)[C@H]1O5 [Nalmefene hydrochloride]
Output: 1.01

Input: Please report the measured pronephric angle neck segment for O=c1[nH]c2ccccc2n1C1CCN(CCCC(c2ccc(F)cc2)c2ccc(F)cc2)CC1 [Pimozide]
Output: 0.976
